Measured values drawn from the Human Domainome abundance scans (Beltran et al. 2025) for this set.

B1: Dystrobrevin alpha, residues 235 to 294; numbered along this chain, Q9Y4J8 (parent)
chain: ENVFHPVECSYCHSESMMGFRYRCQQCHNYQLCQDCFWRGHAGGSHSNQHQMKEYTSWKS

# Variants of: B1
# Protocol description: abundance fitness (aPCA) (normalised: wild type 0, dead -1); higher = more abundant; growth selection in yeast, the domain comes from the species named
# Experimental context: Homo sapiens
// values below are reported abundance fitness
# output: bare number, no unit

Sample answers from the record:
Variant key: C36F
abundance fitness: -0.994
--
Variant key: R39H
abundance fitness: 0.092
--
Variant key: C36D
abundance fitness: -0.624
--
Variant key: E8F
abundance fitness: -0.13
--
Variant key: W38S
abundance fitness: 0.343

From here, focus on the item given below.
Task: Would you kindly share the measured abundance fitness for "Q31C" ?
Output: -0.151
